Tested on: Human umbilical vein endothelial cells
Experiment: Cytotoxicity by propidium iodide exclusion, HUVEC
Format: cell-based
Settings: HUVEC pretreated 18-20 h
Measurement name: Mean fluorescence intensity (×10^4 ± SEM), Compound (10 μM)

Reference set (4 entries):
INSERT INTO measurements (compound, system, experimental_value) VALUES
  ('COc1ccc(C2C3Cc4ccccc4C3=NN2c2ccc(S(N)(=O)=O)cc2)cc1 (centres unmarked)', 'Human umbilical vein endothelial cells', '2.8 ± 0.09 ×10^4'),
  ('COc1ccc(C2CC(c3ccccc3)=NN2c2ccc(S(N)(=O)=O)cc2)cc1OC (centres unmarked)', 'Human umbilical vein endothelial cells', '4.0 ± 0.4 ×10^4'),
  ('COc1ccc(C2CC(c3ccccc3)=NN2c2ccc(S(N)(=O)=O)cc2)cc1 (centres unmarked)', 'Human umbilical vein endothelial cells', '2.1 ± 0.3 ×10^4'),
  ('COCCOc1ccc(C2=NN(c3ccc(S(N)(=O)=O)cc3)C(c3ccc(Cl)cc3)C2)cc1 (centres unmarked)', 'Human umbilical vein endothelial cells', '2.1 ± 0.2 ×10^4');

Recorded Mean fluorescence intensity (×10^4 ± SEM), Compound (10 μM) (compound COc1ccc(C2=NN(c3ccc(S(N)(=O)=O)cc3)C(c3ccc(Cl)cc3)C2)cc1 (centres unmarked) ): 4.6 ± 0.2 ×10^4

Recorded values, source patent US10183032B2.
